Tested on: Plasmodium falciparum
Assay: Screen against P. falciparum Asexual Blood Stage (ABS), at 5uM
Assay type: functional, Dd2
Conditions: tested at 5 uM
In all, about 65,000 compounds went through this assay and about 2,100 (3.2%) showed an effect of 50% or more. The median lay at about -52%. What follows is part of a selection rich in strong results, with near analogues and random picks from the rest.
Short version: INHIBITION at least 50% is T, less is F.

CCN1C[C@@H]2[C@@H](OC)CCN(S(=O)(=O)c3cccnc3)[C@@H]2C1 ... F
CC(Cc1c(F)cccc1F)NC(=O)CN(CC(N)=O)C(C)C (centres undefined) ... F
CN(C)CCN1CCC2[C@@H]1CCN2Cc1ccc2c(c1)OCO2 (some centres undefined) ... T
O=C1N(c2cncnc2)CCC12CCCN(Cc1ccccn1)C2 (centres undefined) ... F
COc1ccc(CCN)cc1-c1ccc(O)cc1 ... T

Req: Quick check: does CC(C)N1CCCCC1c1cncc(Cl)n1 (centres undefined) have INHIBITION greater than or equal to 50%?
Resp: F

###

System: Plasmodium falciparum
Assay: Screen against P. falciparum Asexual Blood Stage (ABS), at 5uM
Format: functional, Dd2
Conditions: tested at 5 uM
Out of some 65,000 compounds screened, about 2,100 (3.2%) showed an effect of 50% or more. The median lay at about -52%. Many of the other results were omitted from the sample, so strong results are more common in it than they were.
Respond with class 1 for INHIBITION values of -40% and above, class 0 for values below.

CN(C)Cc1cncc2c1CCN(Cc1cnn(C)c1)C2 ... class 0
CCC(O)CN1CCN(C(=O)Cc2ccc(C)nc2)CC1 (stereo not drawn) ... class 1

Req: Given CN1CCN(c2ccccc2NC(=O)NCCc2ccccc2)CC1 , state whether its INHIBITION is at least -40%.
Resp: class 1

Req: Textbook exercise: given the entry Cc1cccc(CN2CC[C@H]3C[C@H](C)O[C@@H]3C2)n1 , state whether its INHIBITION is greater than or equal to -40%.
Resp: class 1

###

System: Plasmodium falciparum
Assay: Screen against P. falciparum Asexual Blood Stage (ABS), at 5uM
Format: functional, Dd2
Settings: tested at 5 uM
Out of some 65,000 compounds screened, about 2,100 (3.2%) showed an effect of 50% or more. The median lay at about -52%. For the sample, strong results were picked, then their nearest neighbours and some compounds at random.
INHIBITION: recorded values
Field: numeric (%). Do not append units.

Answered cases to consult:
COc1cc(C2SCC(=O)Nc3ccsc32)cc(OC)c1O (configuration not stated) ... -46.5
CC1=N[C@@]2(CC[C@@H]3CN(CC(C)C)C[C@@H]32)C(=O)N1 ... -40.1
O=C(c1nn(-c2ccccc2F)cc1O)N1CCC2(CC1)OCCO2 ... -12.3
c1cncc(COC[C@H]2CC[C@H]3[C@H](CCN3Cc3cccs3)O2)c1 ... -174
Cn1cc(CN2CC[C@H]3[C@H]2CC(=O)N3Cc2ccncc2)cn1 ... -2.65

Req: Requested read-out: INHIBITION. Entry: CC(Cc1cccc(Cl)c1)NC(=O)Nc1cnn(CC(N)=O)c1 (configuration not stated)
Resp: -5.01

Req: Given CC(C)NC(=O)[C@@H]1C[C@H]2NCC[C@H]2O1 , state its recorded INHIBITION.
Resp: -104

Req: Any idea what its INHIBITION is? The compound is Nc1ncccc1CN1C[C@H]2CC[C@@H](C1)N(CC1CC1)C2=O
Resp: -61.3

Req: Requested field: INHIBITION. Item: Cc1noc(C)c1CN1C[C@@H]2CN(C(=O)c3cscn3)C[C@@H]2C1
Resp: -82.3

Req: Recorded INHIBITION of COCCNC(=O)[C@@]12CCO[C@@H]1CCN(Cc1cc(C)on1)C2 , please.
Resp: -32

Req: // returns reported INHIBITION for input Cc1cccn2cc(CC(=O)N(CCN(C)C)CC3CCCO3)nc12 (configuration not stated)
Resp: -84.6

Req: I would be grateful if you could share the reported INHIBITION for Cc1n[nH]c(C)c1CNC(=O)c1cn(CCC2CCCCN2)nn1 (configuration not stated) .
Resp: -24.9

Req: Can you share its INHIBITION? I mean this compound: COCCN1C[C@@H]2COC[C@@H](CC(=O)NCc3cccnc3)[C@@H]2C1
Resp: -108

Req: // returns reported INHIBITION for input COc1cccc(CNC(C)Cn2cccn2)c1OC (configuration not stated)
Resp: -22.3

Req: # INHIBITION lookup, item CN1CCN(S(=O)(=O)c2cccc(F)c2)Cc2cccnc21
Resp: -37.8

Req: Quick check: INHIBITION of CC(Cn1cccn1)NCc1cccc(C#N)c1 (configuration not stated) ?
Resp: -46.4

Req: Which value of INHIBITION has been reported for N#Cc1cccc(CN2CCn3cc(Cn4cccn4)nc3C2)c1 in the records?
Resp: 78.6
